- assay: Oral bioavailability in rat at 10 mg/kg
- Assay type: ADME, organism-based
- conditions used: in vivo
measured endpoint: bioavailability

Sample CCN(CC)C(=O)C(c1ccccc1)N1CCN(c2ccc(NC(=O)c3ccccc3-c3cccnc3)cc2F)CC1 (stereo unspecified) ; bioavailability observed: 6%

====

measured endpoint: Ki (nM)
Express the result in nM but write the number alone.

Lab entry: Alpha-1A adrenergic receptor (Homo sapiens) assay, compound N=C(N)NCCCC(NC(=O)CC1(CC(=O)N2CCN(C3c4ccccc4NC(=O)c4ccccc43)CC2)CCCC1)C(=O)NCCn1c(=O)n(-c2ccccc2)n(-c2ccccc2)c1=O (single isomer, unassigned) , Ki = 360
